tested on: Escherichia coli TOP10; test: shrunken log2 fold change of peptide-encoding DNA abundance (4.5 h post-induction vs induction); higher = less antimicrobial activity (less host growth inhibition); settings: time post-induction: 4.5 h; library: site-saturation at positions 5, 18, 19, 20;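 also: peptides expressed intracellularly from a pBAD plasmid library in pooled LB shake-flask culture, induced with 0.3% L-arabinose, DNA abundance read by NGS, three biological replicates, DESeq2 with apeglm shrinkage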
1 means recorded shrunken log2 fold change is 0.1 or above; -1 means it is below 0.1.

stdin: Does the sequence RRIRDRPPRLPRPRPRPALDPRP have recorded shrunken log2 fold change that is 0.1 or more?
stdout: 1

stdin: Does the sequence RRIRHRPPRLPRPRPRPYITPRP have recorded shrunken log2 fold change that is 0.1 or more?
stdout: -1

stdin: Does the sequence RRIRQRPPRLPRPRPRPIANPRP have recorded shrunken log2 fold change that is 0.1 or more?
stdout: -1

stdin: Does the sequence RRIRMRPPRLPRPRPRPFFYPRP have recorded shrunken log2 fold change that is 0.1 or more?
stdout: -1

stdin: Does the sequence RRIRNRPPRLPRPRPRPEKEPRP have recorded shrunken log2 fold change that is 0.1 or more?
stdout: -1

stdin: Does the sequence RRIRCRPPRLPRPRPRPHINPRP have recorded shrunken log2 fold change that is 0.1 or more?
stdout: -1

stdin: Does the sequence RRIRQRPPRLPRPRPRPQWVPRP have recorded shrunken log2 fold change that is 0.1 or more?
stdout: -1

stdin: Does the sequence RRIRNRPPRLPRPRPRPDKLPRP have recorded shrunken log2 fold change that is 0.1 or more?
stdout: -1

stdin: Does the sequence RRIRWRPPRLPRPRPRPEDSPRP have recorded shrunken log2 fold change that is 0.1 or more?
stdout: 1

stdin: Does the sequence RRIRPRPPRLPRPRPRPMLVPRP have recorded shrunken log2 fold change that is 0.1 or more?
stdout: -1

stdin: Does the sequence RRIRCRPPRLPRPRPRPVQHPRP have recorded shrunken log2 fold change that is 0.1 or more?
stdout: -1

stdin: Does the sequence RRIRCRPPRLPRPRPRPRANPRP have recorded shrunken log2 fold change that is 0.1 or more?
stdout: 1

stdin: Does the sequence RRIRQRPPRLPRPRPRPENKPRP have recorded shrunken log2 fold change that is 0.1 or more?
stdout: -1

stdin: Does the sequence RRIRIRPPRLPRPRPRPHMVPRP have recorded shrunken log2 fold change that is 0.1 or more?
stdout: -1

stdin: Does the sequence RRIRLRPPRLPRPRPRPQYNPRP have recorded shrunken log2 fold change that is 0.1 or more?
stdout: -1

stdin: Does the sequence RRIRQRPPRLPRPRPRPVHTPRP have recorded shrunken log2 fold change that is 0.1 or more?
stdout: -1

stdin: Does the sequence RRIRGRPPRLPRPRPRPMKLPRP have recorded shrunken log2 fold change that is 0.1 or more?
stdout: 1

stdin: Does the sequence RRIRNRPPRLPRPRPRPKTCPRP have recorded shrunken log2 fold change that is 0.1 or more?
stdout: -1

stdin: Does the sequence RRIRMRPPRLPRPRPRPYMWPRP have recorded shrunken log2 fold change that is 0.1 or more?
stdout: -1

stdin: Does the sequence RRIRFRPPRLPRPRPRPTRNPRP have recorded shrunken log2 fold change that is 0.1 or more?
stdout: 1

stdin: Does the sequence RRIRYRPPRLPRPRPRPSREPRP have recorded shrunken log2 fold change that is 0.1 or more?
stdout: -1

stdin: Does the sequence RRIRWRPPRLPRPRPRPSASPRP have recorded shrunken log2 fold change that is 0.1 or more?
stdout: 1

stdin: Does the sequence RRIRTRPPRLPRPRPRPTLTPRP have recorded shrunken log2 fold change that is 0.1 or more?
stdout: -1

stdin: Does the sequence RRIRQRPPRLPRPRPRPVCTPRP have recorded shrunken log2 fold change that is 0.1 or more?
stdout: -1

stdin: Does the sequence RRIRVRPPRLPRPRPRPQLAPRP have recorded shrunken log2 fold change that is 0.1 or more?
stdout: 1

stdin: Does the sequence RRIRMRPPRLPRPRPRPVCKPRP have recorded shrunken log2 fold change that is 0.1 or more?
stdout: 1

stdin: Does the sequence RRIRVRPPRLPRPRPRPYNQPRP have recorded shrunken log2 fold change that is 0.1 or more?
stdout: -1

stdin: Does the sequence RRIRRRPPRLPRPRPRPLRIPRP have recorded shrunken log2 fold change that is 0.1 or more?
stdout: 1

stdin: Does the sequence RRIRTRPPRLPRPRPRPYQKPRP have recorded shrunken log2 fold change that is 0.1 or more?
stdout: -1

stdin: Does the sequence RRIRGRPPRLPRPRPRPNLYPRP have recorded shrunken log2 fold change that is 0.1 or more?
stdout: -1

stdin: Does the sequence RRIRGRPPRLPRPRPRPVWDPRP have recorded shrunken log2 fold change that is 0.1 or more?
stdout: 1

stdin: Does the sequence RRIRYRPPRLPRPRPRPSICPRP have recorded shrunken log2 fold change that is 0.1 or more?
stdout: -1

stdin: Does the sequence RRIRFRPPRLPRPRPRPLEFPRP have recorded shrunken log2 fold change that is 0.1 or more?
stdout: -1

stdin: Does the sequence RRIRLRPPRLPRPRPRPGRTPRP have recorded shrunken log2 fold change that is 0.1 or more?
stdout: 1

stdin: Does the sequence RRIRGRPPRLPRPRPRPQNEPRP have recorded shrunken log2 fold change that is 0.1 or more?
stdout: 1

stdin: Does the sequence RRIRPRPPRLPRPRPRPQKHPRP have recorded shrunken log2 fold change that is 0.1 or more?
stdout: 1

stdin: Does the sequence RRIRHRPPRLPRPRPRPAWEPRP have recorded shrunken log2 fold change that is 0.1 or more?
stdout: 1

stdin: Does the sequence RRIRGRPPRLPRPRPRPGAAPRP have recorded shrunken log2 fold change that is 0.1 or more?
stdout: 1

stdin: Does the sequence RRIRARPPRLPRPRPRPNRQPRP have recorded shrunken log2 fold change that is 0.1 or more?
stdout: 1

stdin: Does the sequence RRIRNRPPRLPRPRPRPHHKPRP have recorded shrunken log2 fold change that is 0.1 or more?
stdout: -1

stdin: Does the sequence RRIRYRPPRLPRPRPRPCSGPRP have recorded shrunken log2 fold change that is 0.1 or more?
stdout: -1

stdin: Does the sequence RRIRKRPPRLPRPRPRPQEHPRP have recorded shrunken log2 fold change that is 0.1 or more?
stdout: -1

stdin: Does the sequence RRIRTRPPRLPRPRPRPDHTPRP have recorded shrunken log2 fold change that is 0.1 or more?
stdout: -1

stdin: Does the sequence RRIRWRPPRLPRPRPRPANEPRP have recorded shrunken log2 fold change that is 0.1 or more?
stdout: 1

stdin: Does the sequence RRIRIRPPRLPRPRPRPDTSPRP have recorded shrunken log2 fold change that is 0.1 or more?
stdout: -1

stdin: Does the sequence RRIRGRPPRLPRPRPRPHYSPRP have recorded shrunken log2 fold change that is 0.1 or more?
stdout: -1

stdin: Does the sequence RRIRGRPPRLPRPRPRPPCCPRP have recorded shrunken log2 fold change that is 0.1 or more?
stdout: 1

stdin: Does the sequence RRIRQRPPRLPRPRPRPGSKPRP have recorded shrunken log2 fold change that is 0.1 or more?
stdout: -1

stdin: Does the sequence RRIRSRPPRLPRPRPRPHKQPRP have recorded shrunken log2 fold change that is 0.1 or more?
stdout: -1

stdin: Does the sequence RRIRFRPPRLPRPRPRPLGYPRP have recorded shrunken log2 fold change that is 0.1 or more?
stdout: -1

stdin: Does the sequence RRIRLRPPRLPRPRPRPAYTPRP have recorded shrunken log2 fold change that is 0.1 or more?
stdout: -1
